- Tested on: human lung fibroblasts (MRC-5), gastric epithelial cells (AGS) and hepatocytes HepG2
- assay notes: Cytotoxicity, MTT reduction assay, summary over the three cell lines
- Type: cell-based
- condition summary: Homo sapiens; MRC-5, AGS and HepG2, 24 h, MTT; read-out: IC50 values, range over the three cell lines
quantity name: IC50

Answered cases to consult:
# molecule, test value
rows = [
    ("C=C1CCC2[C@](C)(CCC[C@]2(C)C(=O)O)[C@H]1CC[C@@H](C)CCOC(=O)[C@@H](C)c1ccc(CC(C)C)cc1 (mixture of isomers) [Compound 8, Imbricatol-15-yl ibuprofenate]", "23 to 79 µM"),
    ("C=C1CCC2[C@](C)(CCC[C@]2(C)C(=O)OC)[C@H]1CC[C@@H](C)CCOC(=O)[C@@H](C)c1ccc2cc(OC)ccc2c1 (stereo partly drawn) [Compound 11]", "≥ 601 µM"),
]

Now consider a different molecule.
## Task Which IC50 value is on record for CC(C)Cc1ccc([C@H](C)C(=O)Oc2cc3c(cc2C(C)C)CCC2C(C)(C)CCC[C@]32C)cc1 (mixture of isomers) [Compound 6, Ferruginyl ibuprofenate] ?
## Result ≥ 874 µM

---

- System: lung fibroblasts (MRC-5)
- assay notes: Cytotoxicity, MTT reduction assay, MRC-5
- Format: cell-based
- condition summary: Homo sapiens, MRC5, confluent cultures, 24 h, read-out: IC50 ± SD, MRC-5
As shown below, each of these compounds has a reported pIC50 value.
Would you please state pIC50, meaning minus log10 of the concentration in mol/L, as a bare number?

# compound, quantity name, test value
data = [
    ("C=C1CCC2[C@](C)(CCC[C@]2(C)C(=O)OC)[C@H]1CC[C@@H](C)CCOC(=O)[C@@H](C)c1ccc(CC(C)C)cc1 (mixture of isomers)", "pIC50", 3.15),
]

## Task Given the entry C=C1CCC2[C@](C)(CCC[C@]2(C)C(=O)O)[C@H]1CC[C@@H](C)CCOC(=O)[C@@H](C)c1ccc2cc(OC)ccc2c1 (stereo partly shown) [Compound 10, Imbricatol-15-yl naproxenate] , report its measured pIC50.
## Result 4.43

## Task For COc1ccc2cc([C@H](C)C(=O)O[C@H]3CC[C@@]4(C)C(CC[C@]5(C)C4CC=C4C6CC(C)(C)CC[C@]6(C(=O)O)CC[C@]45C)C3(C)C)ccc2c1 (stereo partly shown) [Compound 14, Oleanoyl naproxenate] , what is its reported pIC50?
## Result 3.26

## Task Looking for the measured pIC50 of CC(C)Cc1ccc([C@H](C)C(=O)O[C@H]2CC[C@@]3(C)C(CC[C@]4(C)C3CC=C3C5CC(C)(C)CC[C@]5(C(=O)O)CC[C@]34C)C2(C)C)cc1 (mixture of isomers) [Compound 12, Oleanoyl ibuprofenate] , can you help?
## Result 3.21

## Task Would you kindly share the measured pIC50 for COC(=O)[C@]12CCC(C)(C)CC1C1=CCC3[C@@]4(C)CC[C@H](OC(=O)[C@@H](C)c5ccc(CC(C)C)cc5)C(C)(C)C4CC[C@@]3(C)[C@]1(C)CC2 (mixture of isomers) [Compound 13, Oleanoyl ibuprofenate methyl ester] ?
## Result 3.40

## Task Which pIC50 is listed for C=C1CCC2[C@](C)(CCC[C@]2(C)C(=O)OC)[C@H]1CC[C@@H](C)CCOC(=O)[C@@H](C)c1ccc2cc(OC)ccc2c1 (stereo partly shown) ?
## Result 3.04

## Task Given COC(=O)[C@]12CCC(C)(C)CC1C1=CCC3[C@@]4(C)CC[C@H](OC(=O)[C@@H](C)c5ccc6cc(OC)ccc6c5)C(C)(C)C4CC[C@@]3(C)[C@]1(C)CC2 (stereo partly shown) [Compound 15, Oleanoyl naproxenate methyl ester] , state its recorded pIC50.
## Result 3.09
